Data provenance is patent US20240409609A1.

- system-name: EGFR WT (Homo sapiens (Human))
- Sequence (P00533 668-1210): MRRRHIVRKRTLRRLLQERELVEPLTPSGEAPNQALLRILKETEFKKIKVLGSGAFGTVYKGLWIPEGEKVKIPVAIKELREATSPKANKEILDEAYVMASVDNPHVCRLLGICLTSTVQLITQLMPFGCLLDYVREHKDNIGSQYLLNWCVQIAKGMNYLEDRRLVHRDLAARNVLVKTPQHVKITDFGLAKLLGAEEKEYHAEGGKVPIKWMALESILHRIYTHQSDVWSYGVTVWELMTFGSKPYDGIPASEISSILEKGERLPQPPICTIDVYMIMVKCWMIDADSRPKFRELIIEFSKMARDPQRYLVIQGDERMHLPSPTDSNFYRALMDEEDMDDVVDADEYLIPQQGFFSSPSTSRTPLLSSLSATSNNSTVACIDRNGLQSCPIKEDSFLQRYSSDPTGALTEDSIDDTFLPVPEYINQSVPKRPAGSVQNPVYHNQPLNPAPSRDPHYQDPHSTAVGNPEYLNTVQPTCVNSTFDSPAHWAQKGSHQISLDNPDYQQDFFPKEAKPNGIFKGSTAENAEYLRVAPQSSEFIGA
pIC50: −log10 of the molar value.
endpoint-label: pIC50

Reference set (5 entries):
CN1CCN(Cc2ccc3[nH]/c(=N\C(=O)c4cc(F)cc(Oc5cccc(O)c5C=O)c4)n(CC(C)(C)O)c3c2)CC1 [Compound 53] : 8.22
CN1CCN(Cc2ccc3[nH]/c(=N\C(=O)c4ccnc(N(C)Cc5cccc(O)c5C=O)c4)n(CC(C)(C)O)c3c2)CC1 [Compound 96] : 6.29
CC(=O)Nc1cccc(-c2cnn(-c3cc(C(=O)/N=c4\[nH]c5ccc(CN6CCN(C)CC6)cc5n4CC(C)(C)O)ccn3)c2)c1C=O [Compound 95] : 6.14
COc1cc(N2CCC(N3CCN(C)CC3)CC2)ccc1Nc1ncc(-c2cc(F)c(O)c(C=O)c2)c(Nc2ccccc2)n1 [Compound 9] : 8.31
CC(C)(O)Cn1/c(=N/C(=O)c2ccnc(C#Cc3cccc(O)c3C=O)c2)[nH]c2ccc(CN3CCOCC3)cc21 [Compound 78] : 8.06

1 = COc1cc(N2CCC(N3CCN(C)CC3)CC2)ccc1Nc1ncc(C#Cc2cccc(O)c2C=O)c(Nc2ccccc2)n1 [Compound 18]
2 = CN1CCN(Cc2ccc3[nH]/c(=N\C(=O)c4ccnc(-n5ccc(-c6cccc(O)c6C=O)n5)c4)n(CC(C)(C)O)c3c2)CC1 [Compound 83]
Input line: Identify the entry with the smaller pIC50: 1 or 2 . Your answer should be the label of the entry you select.
Output line: 2

P = CN1CCN(Cc2ccc3[nH]/c(=N\C(=O)c4ccnc(Oc5c(F)ccc(O)c5C=O)c4)n(CC(C)(C)O)c3c2)CC1 [Compound 68]
Q = CN1CCN(Cc2ccc3[nH]/c(=N\C(=O)c4ccc(F)c(Oc5cccc(O)c5C=O)c4)n(CC(C)(C)O)c3c2)CC1 [Compound 110]
Input line: Compare P and Q by numeric pIC50 and name the larger one. Your answer should be the label of the entry you select.
Output line: Q

I = COc1cc(N2CCC(N3CCN(C)CC3)CC2)ccc1Nc1ncc(Cl)c(Nc2ccc(O)c(C=O)c2)n1 [Compound 35]
II = CN1CCN(C(=O)c2ccc3[nH]/c(=N\C(=O)c4ccnc(Oc5cccc(O)c5C=O)c4)n(CC(C)(C)O)c3c2)CC1 [Compound 71]
III = COc1cc(N2CCC(N3CCN(C)CC3)CC2)ccc1Nc1ncc(-c2cc(C=O)c(O)cc2OC)c(Nc2ccccc2)n1 [Compound 13]
IV = CN(C)C/C=C/C(=O)N1CCCC[C@@H](n2c(NC(=O)c3ccnc(-n4cc(-c5cccc(O)c5C=O)cn4)c3)nc3cccc(Cl)c32)C1 [Compound 125]
V = CC(=O)Nc1cccc(Oc2cc(C(=O)/N=c3\[nH]c4ccc(CN5CCN(C)CC5)cc4n3CC(C)(C)O)ccn2)c1C=O [Compound 98]
Input line: Sort the 5 molecules by pIC50; largest first, smallest last. Kindly provide the labels arranged according to the requested ordering.
Output line: II, IV, III, V, I

1 = Cc1ccc(C(=O)/N=c2\[nH]c3ccc(CN4CCN(C)CC4)cc3n2CC(C)(C)O)cc1Oc1cccc(O)c1C=O [Compound 59]
2 = COc1cc(N2CCC(N3CCN(C)CC3)CC2)ccc1Nc1ncc(-c2ccc(O)c(C=O)c2)c(Oc2ccccc2)n1 [Compound 21]
3 = CN1CCN(Cc2ccc3[nH]/c(=N\C(=O)c4ccnc(-c5cnn(-c6cccc(O)c6C=O)c5)c4)n(CC(C)(C)O)c3c2)CC1 [Compound 88]
Input line: Would you mind ranking these molecules by ascending pIC50? Kindly provide the labels arranged according to the requested ordering.
Output line: 2, 3, 1
(2: 6.57, 3: 6.97, 1: 8.03)

I = CC(C)(O)Cn1/c(=N/C(=O)c2ccnc(Oc3cccc(O)c3C=O)c2)[nH]c2ccc(N3CCC(C(C)(C)O)CC3)cc21 [Compound 70]
II = Cc1cc(C(=O)/N=c2\[nH]c3ccc(CN4CCN(C)CC4)cc3n2CC(C)(C)O)cc(-n2cc(-c3cccc(O)c3C=O)cn2)n1 [Compound 102]
Input line: Compare I and II by numeric pIC50 and name the larger one. Your answer should be the label of the entry you select.
Output line: I
(I: 7.94, II: 6.46)
